System: HCT-15 colon
ASSAY DETAILS: NCI tumour cell line growth inhibition, 48 h
I'd appreciate it if you could supply TGI values for the items below.

COc1cc(C(O)C(=O)c2cnc3cc([N+](=O)[O-])ccc3n2)ccc1O (stereo not given) = > 100 µM
Nc1nccc2c1ccn2-c1cccc(NC(=O)c2ccc(N3CCOCC3)c(C(F)(F)F)c2)c1 = > 22.7 µM
O=C(NNS(=O)(=O)c1ccccc1)c1csc(NC(=S)NC2CCCCC2)n1 = > 100 µM
C[N+]1([O-])[C@H]2CC(OC(=O)[C@H](CO)c3ccccc3)C[C@H]1[C@H]1O[C@H]12 (stereo not given in full) = > 100 µM

We now examine a further compound.
HCT-15 colon TGI of `COc1cnc2c(c1)C(=O)c1c-2n(CCCNCCN2CCOCC2)c(=O)c2cc([N+](=O)[O-])ccc12` is 2.58 µM

---

I'd appreciate it if you could supply TGI values for the items below.
System: HOP-92 NSCLC
ASSAY DETAILS: NCI tumour cell line growth inhibition, 48 h

Study these solved cases before continuing.
CCCC(=O)c1ccc(=O)n(C)c1 = > 100 µM
N#Cc1ccc(C2Oc3ccc(Cl)cc3C=C2[N+](=O)[O-])cc1 (stereo not given) = 2.83 µM

Required: TGI, one value per compound below.
1. CCOC(=O)c1ccccc1SC(C[N+](=O)[O-])c1ccccc1 (stereo not given)
2. COc1ccc(/C=N\NC(=O)c2ccc3nc(-c4ccc(Cl)cc4)[nH]c3c2)cc1
3. O=C1c2cccc3c(Cl)ccc(c23)C(=O)N1CCCN1CCN(CCCN2C(=O)c3cccc4c(Cl)ccc(c34)C2=O)CC1
4. O=c1c2cc(I)ccc2nc(SCc2nnco2)n1Cc1ccccc1
5. C[N+](C)(C)CC(CC(=O)[O-])C1CC1 (stereo not given)

1: 21.9 µM; 2: 4.11 µM; 3: > 100 µM; 4: > 100 µM; 5: > 100 µM

Required: TGI, one value per compound below.
1. Cc1cccc(C(C)C)c1NC(=O)CCl
2. CC(=O)OCC1OC(SC2=NC(=O)/C(=C/c3ccccc3)S2)C(OC(C)=O)C(OC(C)=O)C1OC(C)=O (stereo not given)

> 100 µM
44.2 µM

Required: TGI, one value per compound below.
1. COc1cc2c(c(OC)c1OC)-c1ccc(SC)c(=O)cc1[C@@H](NCc1cccc([N+](=O)[O-])c1)CC2
2. CCn1c(=O)c2c3ccc(OC)cc3[nH]c2c2ccc(OC)cc21
3. COc1ccc(N=Nc2c(-c3ccccc3)nn(C(=O)CC(=O)Nc3ccccc3Cl)c2-c2ccccc2)cc1
4. N#Cc1c(N2CCCC2)nsc1Nc1ccc(F)cc1
5. CN(/N=C/c1ccc(Cl)cc1)C1=NCCCCN1
6. Cc1c2oc3c(C)cc(F)c(C(=O)NC4C(=O)NC(C(C)C)C(=O)N5CCCC5C(=O)N(C)CC(=O)N(C)C(C(C)C)C(=O)OC4C)c3nc-2c(C(=O)NC2C(=O)NC(C(C)C)C(=O)N3CCCC3C(=O)N(C)CC(=O)N(C)C(C(C)C)C(=O)OC2C)c(N)c1=O (stereo not given)

["> 100 µM", "> 100 µM", "> 100 µM", "> 100 µM", "> 100 µM", "0.887 µM"]

Required: TGI, one value per compound below.
1. OCC(O)COc1c(Cl)cc(Cl)cc1Cl (stereo not given)
2. CCCCCCCCCCCCCCCC(=O)OCC1OC(OC)C(NC(=O)N(CCCl)N=O)C(O)C1O (stereo not given)
3. Clc1ccc2nc(Cl)c3ccccc3c2c1

1: > 100 µM; 2: 47.8 µM; 3: 29.7 µM

Required: TGI, one value per compound below.
1. O=c1[nH]c(=O)n(COCc2ccccc2)c2ccccc12
2. CCOc1cc2c(=O)oc3c(OC)ccc4ccc(c1OC)c2c43

1. > 100 µM
2. > 100 µM

---

System: EKVX NSCLC
ASSAY DETAILS: NCI tumour cell line growth inhibition, 48 h
I'd appreciate it if you could supply TGI values for the items below.

COc1cc(-c2nc(-c3ccc(-c4nc5ccc(F)cc5[nH]4)cc3)no2)cc(OC)c1OC = 27.4 µM

Required: TGI, one value per molecule below.
1. COc1cnc2c(c1)C(=O)c1c-2n(CCCNCCN2CCOCC2)c(=O)c2cc([N+](=O)[O-])ccc12
2. CN1C=COC1N=C1CCCCC1 (stereo unspecified)
3. Cc1cn([C@@H]2C[C@H](CO)[C@@H]2O)c(=O)[nH]c1=O
4. COc1ccc(CCCN2c3ccccc3Sc3ccccc32)cc1

1: 3.5 µM; 2: > 100 µM; 3: > 100 µM; 4: > 100 µM

Required: TGI, one value per molecule below.
1. O=C(Cc1csc2nc(-c3ccc(Br)cc3)cn12)N/N=C/c1ccc(Cl)cc1Cl
2. C[C@@]12C[C@@H](c3ccccc3O1)N1Cc3ccccc3CSC1=N2
3. O=c1c2cc(I)ccc2nc(SCc2nnco2)n1Cc1ccccc1
4. COc1cc(/C(=C2/O[C@@H]([C@H]3COC(C)(C)O3)[C@H]3OC(C)(C)O[C@@H]23)c2ccc3c(c2)OCO3)cc(OC)c1OC

["> 100 µM", "> 100 µM", "> 100 µM", "> 25 µM"]

Required: TGI, one value per molecule below.
1. Cc1c2cccc-2c(OCCOC(=O)n2ccnc2)cc2c1[nH]c1ccccc12
2. N#CCc1nc2cc(C(F)(F)F)ccc2s1

4.18 µM
> 100 µM

---

Test system: RXF 393 renal
ASSAY DETAILS: NCI tumour cell line growth inhibition, 48 h
I'd appreciate it if you could label each record using TGI and these ranges: lower range: < 10 µM; middle range: ≥ 10 µM and < 50 µM; upper range: ≥ 50 µM

Known results for compounds:
N#Cc1cc([N+](=O)[O-])ccc1NC(=O)C(=O)C(C(=O)c1ccc2ccccc2c1)C1OCc2ccccc21 (stereo not given) = middle range
C[C@]12CC[C@H](O)CC1=CC[C@@H]1[C@@H]2CC[C@]2(C)C(=O)/C(=C/c3ccc([N+](=O)[O-])cc3)C[C@@H]12 = middle range
COc1cc(C(=O)O/N=C(\N)Cc2cccc3ccccc23)cc(OC)c1OC = middle range
C[N+](C)(C)CC(=O)N/N=C(/Cc1nc2ccc([N+](=O)[O-])cc2[nH]c1=O)C(=O)Nc1cc(C(F)(F)F)ccc1Cl = upper range

Textbook exercise: identify the category of the compound given here, `CC(=O)OCCOCNC(=S)N/N=C(\C)c1cccs1` , according to its measured value.
upper range

Textbook exercise: identify the category of the compound given here, `Nc1nc(-c2ccc(Cl)cc2)cc(-c2ccc(Cl)cc2)c1-c1nc2ccccc2o1` , according to its measured value.
middle range

Textbook exercise: identify the category of the compound given here, `CCC(=O)N1C(=O)C(CC)(CC)C(=O)N1C(=O)CC` , according to its measured value.
upper range

Textbook exercise: identify the category of the compound given here, `Cc1cc2oc3c(ccc(=O)n3C)c(=O)c2c(C)c1Cl` , according to its measured value.
upper range

Textbook exercise: identify the category of the compound given here, COC1C(CO)OC(n2c3c(Cl)cccc3c3c4c(c5c6cccc(Cl)c6[nH]c5c32)C(=O)NC4=O)C(O)C1O (stereo not given) , according to its measured value.
lower range

Textbook exercise: identify the category of the compound given here, `N#CCc1nc2cc(C(F)(F)F)ccc2s1` , according to its measured value.
upper range

Textbook exercise: identify the category of the compound given here, `O=C1/C(=C/c2ccc(Cl)cc2)CN(C(=O)CCN2CCC(=NO)CC2)C/C1=C\c1ccc(Cl)cc1` , according to its measured value.
lower range

Textbook exercise: identify the category of the compound given here, `CCN(CC)c1ccc2cc(C(N)=O)c(=Nc3ccc(F)cc3)oc2c1` , according to its measured value.
upper range

Textbook exercise: identify the category of the compound given here, `COc1cc(-c2nc3cc(Cl)c(Cl)cc3[nH]2)ccc1OCC(=O)N=Nc1c(O)[nH]c2ccc(Cl)cc12` , according to its measured value.
lower range

Textbook exercise: identify the category of the compound given here, `O=C(Cc1ccc(Nc2ccnc(C(F)(F)F)c2)cc1)Nc1cc(Cl)ccc1O` , according to its measured value.
upper range

Textbook exercise: identify the category of the compound given here, `COc1cc2cnc(-c3ccccc3)cc2cc1OC` , according to its measured value.
upper range

Textbook exercise: identify the category of the compound given here, `COc1ccc(CCCN2c3ccccc3Sc3ccccc32)cc1` , according to its measured value.
upper range

Textbook exercise: identify the category of the compound given here, `N#Cc1ccc2[nH]c3c(c2c1)CC(=O)Nc1ccccc1-3` , according to its measured value.
upper range

Textbook exercise: identify the category of the compound given here, `O=C(Nc1ccc(Sc2ccc(N=Nc3c(O)c(S(=O)(=O)O)cc4cc(S(=O)(=O)O)ccc34)cc2)cc1)c1ccc(N=Nc2c(O)c(S(=O)(=O)O)cc3cc(S(=O)(=O)O)ccc23)cc1` , according to its measured value.
upper range

Textbook exercise: identify the category of the compound given here, `O=C(N[C@H]1CCC[C@H]1C(=O)Nc1ccc(C(F)(F)F)cc1)OCc1ccccc1` , according to its measured value.
upper range

Textbook exercise: identify the category of the compound given here, `O=Cc1c(Br)[nH]c2ccccc12` , according to its measured value.
upper range

Textbook exercise: identify the category of the compound given here, `COc1ccc(N2N=NN(C(C)C)/C2=C(/Cl)c2nnnn2-c2ccc(OC)cc2)cc1` , according to its measured value.
middle range

Textbook exercise: identify the category of the compound given here, CCOc1ccc(NCC2CC/C(=C\c3ccc(Cl)cc3)C2=O)cc1 (stereo not given) , according to its measured value.
upper range

Textbook exercise: identify the category of the compound given here, `CN(C)c1ccc(Nc2c3ccccc3nc3cc(NC(=O)CCN4CCCC4)ccc23)cc1` , according to its measured value.
lower range
